Data origin: patent US20250382355A1

The entries below are paired with their reported binning response.
- Target of assay: Biotinylated CoV2 Spike ECD PreS-AVI protein (SARS-CoV-2, UniProt P0DTC2 14-1208)
- Assay: Octet binning; competitor Std-D

**Q:** Name the reported binning response value associated with the binder 5A6 VHH-Fc (Fc fusion) QVQLVESGGGLAQAGGSLRLSCATSGLTFSMSAMGWFRQAPGNEREFVGVINWNGGSSRYADSVRGRFTISRDNAKNTVYLQMNSLKPEDTGVYYCAADALNIGTGEVNPRLYDYWGQGTQVMVSS
**A:** 0.03

**Q:** Same question for 1E4 VHH-Fc (Fc fusion) QVLLVESGGGLVQAGGLLRLACSASGRTFTENVMGWFRQAPGKEREFVAAINWNTGSTYYSDSRKGRFTISKDNAKNTMFLQINNLKPEDTAVYYCGGTSSSYYYIGEFIPDYWGQGTQVTVSS please.
**A:** 0.08

**Q:** Same question for 3D4 VHH-Fc (Fc fusion) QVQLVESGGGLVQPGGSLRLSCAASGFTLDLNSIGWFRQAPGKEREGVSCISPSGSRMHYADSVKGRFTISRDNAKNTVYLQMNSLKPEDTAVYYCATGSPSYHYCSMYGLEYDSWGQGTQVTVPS please.
**A:** 0.04

**Q:** Same question for 15H7 VHH-Fc (Fc fusion) QVQLVESGGRLVQAGGSLRLSCAAPGRTFRNLTLGWFRQAPGKEREFVASTSWPDDEMTYYTDSVKGRFTISRDNAKNTVYLQMNSLKPEDTAVYYCAAASWSGRSTLSYDYDYWGQGTQVTVST please.
**A:** 0.08

New cases:
**Q:** Name the reported binning response value associated with the binder 10B8 VHH-Fc (Fc fusion) QVQLVESGGGLVQPGGSLRLSCAASGITLDYYAIAWFRQAPGKEREGVSCFCSSDGDIRYADSVKGRFTISRDNAKNTVYLQMNSLKPEDTAVYYCATERVYSSTWFFHRYSELDFGSWGRGTQVTVSS
**A:** 0.05

**Q:** Same question for 8E9 VHH-Fc (Fc fusion) QVQLVESGGGLVEAGGSLRLSCVASGSSSSINAMGWYRQAPGKQRELVASISHDGETKYANSVKGRFTISRGNAKNTIYLQMNSLKPEDTAVYYCVGDVAWVVVAGEYDYWGQGTQVTVSS please.
**A:** 0.04

**Q:** Same question for 19E10 VHH-Fc (Fc fusion) QVQLVESGGGLVQPGGSLRLSCVASGSTISINSMGWYRQAPGKAREMVATITNDGPIKYADPVKGRFTISRDNPKNTVYLQMNSLKPEDTAVYYCVADRAYWLAGEWEYWGQGTQVTVSS please.
**A:** 0.06

**Q:** Same question for 11F8 VHH-Fc (Fc fusion) QVQLVESGGGLVQAGGSLRLSCAASGRTVGYYAVGWFRQAPGKERDFVAAISWSGRNTNYADSVTGRFTIFRDNAKNTVDLQMNSLKPEDTAVYYCAADYWNYGSGSEVPNNYDTWGQGTQVTVSS please.
**A:** 0.08

**Q:** Same question for 5D7 VHH-Fc (Fc fusion) QVQLVESGGGLVQAGGSLRLSCAASGRTGSRYIMGWFRQAPGKEREFVAAINWRGDSTYYADSVKGRFTIARDNAKNTAYLQMNSLKPEDTAVYYCVADRGESYYYTRSTEYTYWGQGTQVTVSS please.
**A:** 0.12
